assay: In-vivo tissue distribution evaluation
reported_conditions: both, C57BL/6N, mouse, liver, po, 0.4 mg/mouse
measured_attribute: AUC(0-t) (ng·h/mL)
Reply numerically in ng·h/mL, unit not repeated.

// recorded AUC(0-t) for NC(=O)C[S@@+]([O-])C(c1ccccc1)c1ccccc1 [Armodafinil] : 2380

====

assay: Plasma pharmacokinetic evaluation
Assay type: in vivo, C57BL/6N mice
reported_conditions: both, C57BL/6N, mouse, po, 0.4 mg/mouse
measured_attribute: Cmax (ng/mL)
Reply numerically in ng/mL, unit not repeated.

// recorded Cmax for "NC(=O)C[S@@+]([O-])C(c1ccccc1)c1ccccc1" : 3600

====

assay: In-vivo tissue distribution evaluation
reported_conditions: both, C57BL/6N, mouse, liver, po, 0.4 mg/mouse
measured_attribute: Cmax (µg/mL)
Reply numerically in µg/mL, unit not repeated.

// recorded Cmax for "NC(=O)C[S@@+]([O-])C(c1ccccc1)c1ccccc1" : 1.15

====

assay: Plasma pharmacokinetic evaluation
Assay type: in vivo, C57BL/6N mice
reported_conditions: both, C57BL/6N, mouse, po, 0.4 mg/mouse
measured_attribute: Tmax (min)
Reply numerically in min, unit not repeated.

// recorded Tmax for NC(=O)C[S@@+]([O-])C(c1ccccc1)c1ccccc1 [Armodafinil] : 15

====

assay: In-vivo tissue distribution evaluation
reported_conditions: both, C57BL/6N, mouse, brain, po, 0.4 mg/mouse
measured_attribute: AUC(0-t) (ng·h/mL)
Reply numerically in ng·h/mL, unit not repeated.

// recorded AUC(0-t) for "NC(=O)C[S@@+]([O-])C(c1ccccc1)c1ccccc1" : 1090

====

assay: Plasma pharmacokinetic evaluation
Assay type: in vivo, C57BL/6N mice
reported_conditions: both, C57BL/6N, mouse, po, 0.4 mg/mouse
measured_attribute: AUC(0-t) (ng·h/mL)
Reply numerically in ng·h/mL, unit not repeated.

// recorded AUC(0-t) for "NC(=O)C[S@@+]([O-])C(c1ccccc1)c1ccccc1" : 9900

====

assay: In-vivo tissue distribution evaluation
reported_conditions: both, C57BL/6N, mouse, brain, po, 0.4 mg/mouse
measured_attribute: Tmax (min)
Reply numerically in min, unit not repeated.

// recorded Tmax for NC(=O)C[S@@+]([O-])C(c1ccccc1)c1ccccc1 [Armodafinil] : 30

====

assay: In-vivo tissue distribution evaluation
reported_conditions: both, C57BL/6N, mouse, brain, po, 0.4 mg/mouse
measured_attribute: Cmax (ng/mL)
Reply numerically in ng/mL, unit not repeated.

// recorded Cmax for NC(=O)C[S@@+]([O-])C(c1ccccc1)c1ccccc1 [Armodafinil] : 259
